# Tested on: DU-4475
# testName: normalised viability (% of control), CellTiter-Blue; higher = more viable cells (about 100 = DMSO control)
# testContext: 3 nM; incubation time: 72 h
measurementKind: normalised viability (%)

- COc1ccc(-c2ccc3c(N4CCOC[C@@H]4C)nc(N4CCOC[C@@H]4C)nc3n2)cc1CO: 95.8
- CN1CCN(CCOc2cc(OC3CCOCC3)c3c(Nc4c(Cl)ccc5c4OCO5)ncnc3c2)CC1: 96.6
- CNNCc1ccc(C(=O)NC(C)C)cc1: 90.7
- CN(C)CCN1C(=O)c2cccc3cc(N)cc(c23)C1=O [Amonafide]: 100
- CCCCCCCCc1ccc(CCC(N)(CO)CO)cc1: 103

* * *

# Test system: MDA-MB-468
# testName: normalised response (% of control), CellTiter-Glo; higher = more viable cells (100 = DMSO, 0 = benzethonium chloride kill control)
# testContext: incubation time: 72 h
// reported normalised response for each item listed
measurementKind: normalised response

* CN(C)C[C@@H]1CCn2cc(c3ccccc32)C2=C(C(=O)NC2=O)c2cn(c3ccccc23)CCO1 [Ruboxistaurin] (100 nM) | 93.8%
* Cc1ccc(NC(=O)c2ccc(CN3CCN(C)CC3)cc2)cc1Nc1nccc(-c2cccnc2)n1 [Imatinib] (100 nM) | 106%
* c1ccc([C@H]2CN3CCSC3=N2)cc1 [Levamisole] (100 nM) | 113%
* Cn1cncc1[C@@](N)(c1ccc(Cl)cc1)c1ccc2c(c1)c(-c1cccc(Cl)c1)cc(=O)n2C [Tipifarnib] (100 nM) | 74.9%

* * *

# Test system: MDA-MB-231
# testName: normalised response (% of control), CellTiter-Glo; higher = more viable cells (100 = DMSO, 0 = benzethonium chloride kill control)
# testContext: incubation time: 72 h
// reported normalised response for each item listed
measurementKind: normalised response (%)

• Cn1cncc1[C@@](N)(c1ccc(Cl)cc1)c1ccc2c(c1)c(-c1cccc(Cl)c1)cc(=O)n2C [Tipifarnib] (10000 nM) = 73.8
• CC[C@]1(O)C[C@H]2CN(CCc3c([nH]c4ccccc34)[C@@](C(=O)OC)(c3cc4c(cc3OC)N(C=O)[C@H]3[C@@](O)(C(=O)OC)[C@H](OC(C)=O)[C@]5(CC)C=CCN6CC[C@]43[C@@H]65)C2)C1 [Vincristine] (1000 nM) = 48.4
• O=C1NC(=O)[C@@H](c2cn3c4c(cccc24)CCC3)[C@@H]1c1c[nH]c2ccccc12 [Tivantinib] (1000 nM) = 56.2
• CC(C)c1c(C(=O)Nc2ccccc2)c(-c2ccccc2)c(-c2ccc(F)cc2)n1CC[C@@H](O)C[C@@H](O)CC(=O)O [Atorvastatin] (10000 nM) = 3.78
• CN(C)C[C@@H]1CCn2cc(c3ccccc32)C2=C(C(=O)NC2=O)c2cn(c3ccccc23)CCO1 [Ruboxistaurin] (10000 nM) = 0.34

* * *

# Test system: CAL-120
# testName: normalised response (% of control), CellTiter-Glo; higher = more viable cells (100 = DMSO, 0 = benzethonium chloride kill control)
# testContext: incubation time: 72 h
// reported normalised response for each item listed
measurementKind: normalised response

• Nc1ncnc2c1c(COc1cccc(Cl)c1)nn2C1CCOCC1 (10 nM) = 96.6%
• Cn1c(=O)n(-c2ccc(C(C)(C)C#N)cc2)c2c3cc(-c4cnc5ccccc5c4)ccc3ncc21 [Dactolisib] (1 nM) = 90.2%
• Cc1ccc(NC(=O)c2ccc(CN3CCN(C)CC3)cc2)cc1Nc1nccc(-c2cccnc2)n1 [Imatinib] (1000 nM) = 108%
• NS(=O)(=O)OC[C@@H]1C[C@@H](n2ccc3c(N[C@H]4CCc5ccccc54)ncnc32)C[C@@H]1O [Pevonedistat] (1 nM) = 100%
• Cn1c(=O)n(-c2ccc(C(C)(C)C#N)cc2)c2c3cc(-c4cnc5ccccc5c4)ccc3ncc21 [Dactolisib] (0.1 nM) = 97.4%

* * *

# Tested on: CAL-85-1
# testName: normalised response (% of control), CellTiter-Glo; higher = more viable cells (100 = DMSO, 0 = benzethonium chloride kill control)
# testContext: incubation time: 72 h
// reported normalised response for each item listed
measurementKind: normalised response (%)

* O=C(O)CCCc1ccc(N(CCCl)CCCl)cc1 [Chlorambucil] (10 nM) | 108
* c1ccc([C@H]2CN3CCSC3=N2)cc1 [Levamisole] (1000 nM) | 104
* Nc1ncnc2c1c(COc1cccc(Cl)c1)nn2C1CCOCC1 (1000 nM) | 93.4
* C/C(=C\c1csc(C)n1)[C@@H]1C[C@@H]2O[C@]2(C)CCC[C@H](C)[C@H](O)[C@@H](C)C(=O)C(C)(C)[C@@H](O)CC(=O)O1 [Patupilone] (1 nM) | 105

* * *

// reported normalised response for each item listed
# System: MDA-MB-436
# testName: normalised response (% of control), CellTiter-Glo; higher = more viable cells (100 = DMSO, 0 = benzethonium chloride kill control)
# testContext: incubation time: 72 h
measurementKind: normalised response (%)

• C[C@]12CC[C@H](O)CC1=CC[C@@H]1[C@@H]2CC[C@]2(C)C(c3cccnc3)=CC[C@@H]12 [Abiraterone] (5000 nM) = 100
• O=C(O)CCCc1ccc(N(CCCl)CCCl)cc1 [Chlorambucil] (10000 nM) = 81.3
• c1ccc([C@H]2CN3CCSC3=N2)cc1 [Levamisole] (10000 nM) = 108
• CN(C)C[C@@H]1CCn2cc(c3ccccc32)C2=C(C(=O)NC2=O)c2cn(c3ccccc23)CCO1 [Ruboxistaurin] (10000 nM) = 3.33
• CN1CCN(CCOc2cc(OC3CCOCC3)c3c(Nc4c(Cl)ccc5c4OCO5)ncnc3c2)CC1 [Saracatinib] (10000 nM) = 83
• CO[C@H]1C[C@@H]2CC[C@@H](C)[C@@](O)(O2)C(=O)C(=O)N2CCCC[C@H]2C(=O)O[C@H]([C@H](C)C[C@@H]2CC[C@@H](OCCO)[C@H](OC)C2)CC(=O)[C@H](C)/C=C(\C)[C@@H](O)[C@@H](OC)C(=O)[C@H](C)C[C@H](C)/C=C/C=C/C=C/1C [Everolimus] (100 nM) = 75.5

* * *

# Test system: Hs578T
# testContext: 72 h
// reported EC50, CellTiter-Glo for each item listed
measurementKind: EC50, CellTiter-Glo (nM)

• O=C1NC(=O)[C@@H](c2cn3c4c(cccc24)CCC3)[C@@H]1c1c[nH]c2ccccc12 [Tivantinib] = 519
• CO[C@H]1C[C@@H]2CC[C@@H](C)[C@@](O)(O2)C(=O)C(=O)N2CCCC[C@H]2C(=O)O[C@H]([C@H](C)C[C@@H]2CC[C@@H](OCCO)[C@H](OC)C2)CC(=O)[C@H](C)/C=C(\C)[C@@H](O)[C@@H](OC)C(=O)[C@H](C)C[C@H](C)/C=C/C=C/C=C/1C [Everolimus] = 0.18
• CC[C@]1(O)C[C@H]2CN(CCc3c([nH]c4ccccc34)[C@@](C(=O)OC)(c3cc4c(cc3OC)N(C=O)[C@H]3[C@@](O)(C(=O)OC)[C@H](OC(C)=O)[C@]5(CC)C=CCN6CC[C@]43[C@@H]65)C2)C1 [Vincristine] = 16.2
• CN1CCN(CCOc2cc(OC3CCOCC3)c3c(Nc4c(Cl)ccc5c4OCO5)ncnc3c2)CC1 [Saracatinib] = 2330

* * *

# System: BT-474
# testName: normalised response (% of control), CellTiter-Glo; higher = more viable cells (100 = DMSO, 0 = benzethonium chloride kill control)
# testContext: incubation time: 72 h
Use 60% as the dividing line for normalised response, with the line itself on the fulfilled side and lower values as not fulfilled.

* CC[C@]1(O)C[C@H]2CN(CCc3c([nH]c4ccccc34)[C@@](C(=O)OC)(c3cc4c(cc3OC)N(C=O)[C@H]3[C@@](O)(C(=O)OC)[C@H](OC(C)=O)[C@]5(CC)C=CCN6CC[C@]43[C@@H]65)C2)C1 [Vincristine] (1000 nM) | not fulfilled
* Nc1ncnc2c1c(COc1cccc(Cl)c1)nn2C1CCOCC1 (10000 nM) | fulfilled
* Cc1ccc(NC(=O)c2ccc(CN3CCN(C)CC3)cc2)cc1Nc1nccc(-c2cccnc2)n1 [Imatinib] (10000 nM) | fulfilled
* CN1CCN(CCOc2cc(OC3CCOCC3)c3c(Nc4c(Cl)ccc5c4OCO5)ncnc3c2)CC1 [Saracatinib] (10000 nM) | not fulfilled
* NS(=O)(=O)OC[C@@H]1C[C@@H](n2ccc3c(N[C@H]4CCc5ccccc54)ncnc32)C[C@@H]1O [Pevonedistat] (10000 nM) | not fulfilled
* O=C(O)CCCc1ccc(N(CCCl)CCCl)cc1 [Chlorambucil] (10000 nM) | fulfilled

* * *

# System: SK-BR-3
# testName: normalised response (% of control), CellTiter-Glo; higher = more viable cells (100 = DMSO, 0 = benzethonium chloride kill control)
# testContext: incubation time: 72 h
measurementKind: normalised response (%)

* CO[C@H]1C[C@@H]2CC[C@@H](C)[C@@](O)(O2)C(=O)C(=O)N2CCCC[C@H]2C(=O)O[C@H]([C@H](C)C[C@@H]2CC[C@@H](OCCO)[C@H](OC)C2)CC(=O)[C@H](C)/C=C(\C)[C@@H](O)[C@@H](OC)C(=O)[C@H](C)C[C@H](C)/C=C/C=C/C=C/1C [Everolimus] (0.01 nM) | 93.4
* Cc1ccc(NC(=O)c2ccc(CN3CCN(C)CC3)cc2)cc1Nc1nccc(-c2cccnc2)n1 [Imatinib] (1 nM) | 107
* Nc1nc(OCc2cc(Br)cs2)c2[nH]cnc2n1 [Lomeguatrib] (1000 nM) | 103
* COc1ccccc1S(=O)(=O)Nc1ccc2c(c1)CN(C)C(=O)N2 [PFI-1] (1 nM) | 104
